Target: murine IL-21R expressed on cells (murine, UniProt Q9JHX3 20-529)
Sequence (Q9JHX3 20-529 limits assumed): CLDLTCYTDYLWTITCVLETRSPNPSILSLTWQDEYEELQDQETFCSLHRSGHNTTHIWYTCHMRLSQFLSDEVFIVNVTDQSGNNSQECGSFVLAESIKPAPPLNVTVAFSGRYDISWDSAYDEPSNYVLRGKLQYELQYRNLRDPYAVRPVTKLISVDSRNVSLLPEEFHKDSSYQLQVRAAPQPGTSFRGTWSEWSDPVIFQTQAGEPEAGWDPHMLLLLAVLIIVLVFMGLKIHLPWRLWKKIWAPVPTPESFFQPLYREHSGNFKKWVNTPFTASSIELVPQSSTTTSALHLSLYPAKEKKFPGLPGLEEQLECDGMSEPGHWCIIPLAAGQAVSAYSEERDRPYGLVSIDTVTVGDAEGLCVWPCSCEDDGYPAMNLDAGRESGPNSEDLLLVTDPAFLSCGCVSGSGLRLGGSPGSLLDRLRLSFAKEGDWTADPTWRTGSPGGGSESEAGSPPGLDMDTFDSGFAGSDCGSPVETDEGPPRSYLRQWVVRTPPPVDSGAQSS
Test: cell-based or functional assay
Please mark 1 if the recorded Murine IL-21R-BaF3 Proliferation IC50 is equal to or greater than 0.3 nM, and 0 if it falls below.

See these solved cases before continuing.
INSERT INTO assay_data (binder, class_name) VALUES
  ('AbD (antibody, IgG1, V domains shown, As for AbA: IgG1/lambda, CDR3 graft, residue limits derived; also called VHP/VL13) VH: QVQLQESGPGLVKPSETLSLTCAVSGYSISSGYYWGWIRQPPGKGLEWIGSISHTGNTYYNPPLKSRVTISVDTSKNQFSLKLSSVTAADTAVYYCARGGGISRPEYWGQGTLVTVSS VL: SSELTQDPAVSVALGQTVRITCQGDSLRTYYASWYQQKPGQAPVLVIYGKHKRPSGIPDRFSGSSSGNTASLTITGAQAEDEADYYCVTRNRYGNPHVLFGGGTQLTVL', 0),
  ('AbI (antibody, IgG1, V domains shown, As for AbA: IgG1/lambda, CDR3 graft, residue limits derived; also called VHP/VL24) VH: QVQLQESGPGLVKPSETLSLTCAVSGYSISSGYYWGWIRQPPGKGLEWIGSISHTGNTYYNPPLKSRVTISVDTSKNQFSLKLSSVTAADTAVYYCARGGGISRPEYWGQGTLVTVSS VL: SSELTQDPAVSVALGQTVRITCQGDSLRTYYASWYQQKPGQAPVLVIYGKHKRPSGIPDRFSGSSSGNTASLTITGAQAEDEADYYCIARSNKGNPHVLFGGGTQLTVL', 0),
  ('AbQ (antibody, human IgG1, V domains shown, CDR3 graft, residue limits derived as for m29; also called VH3/VL2; VH3DM/VL2) VH: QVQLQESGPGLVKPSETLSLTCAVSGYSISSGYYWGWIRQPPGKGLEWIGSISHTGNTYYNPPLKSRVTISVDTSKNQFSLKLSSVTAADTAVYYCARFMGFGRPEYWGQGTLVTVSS VL: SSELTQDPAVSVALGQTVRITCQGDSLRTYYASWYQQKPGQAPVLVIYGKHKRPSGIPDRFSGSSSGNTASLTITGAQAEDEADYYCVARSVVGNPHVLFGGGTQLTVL', 0),
  ('AbP (antibody, human IgG1, V domains shown, CDR3 graft, residue limits derived as for m29; also called VHP/VL20; VHPTM/VL20) VH: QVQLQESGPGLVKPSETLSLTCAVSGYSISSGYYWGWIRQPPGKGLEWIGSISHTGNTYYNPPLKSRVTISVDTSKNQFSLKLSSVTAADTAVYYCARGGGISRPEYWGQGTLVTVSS VL: SSELTQDPAVSVALGQTVRITCQGDSLRTYYASWYQQKPGQAPVLVIYGKHKRPSGIPDRFSGSSSGNTASLTITGAQAEDEADYYCVSRSAKGNPHVLFGGGTQLTVL', 0);

We next turn to a different binder, shown below.
Textbook exercise: given the entry AbH (antibody, IgG1, V domains shown, As for AbA: IgG1/lambda, CDR3 graft, residue limits derived; also called VHP/VL19) VH: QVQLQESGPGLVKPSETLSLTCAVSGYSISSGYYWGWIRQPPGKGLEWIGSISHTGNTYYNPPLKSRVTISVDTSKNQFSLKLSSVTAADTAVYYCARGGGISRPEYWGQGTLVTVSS VL: SSELTQDPAVSVALGQTVRITCQGDSLRTYYASWYQQKPGQAPVLVIYGKHKRPSGIPDRFSGSSSGNTASLTITGAQAEDEADYYCVARAVRGNPHVLFGGGTQLTVL , state whether its Murine IL-21R-BaF3 Proliferation IC50 is greater than or equal to 0.3 nM.
1
